tested on: HCT-116; experiment: Cytotoxicity against human HCT116 cells assessed as reduction in cell viability after 72 hrs by MTT assay; type: functional, cell-based; conditions: HCT-116, 72 h

>  <smiles-notation>
CCOC(=O)Cc1c(-c2ccc(OC)c(OC)c2)c2c(n1-c1ccc(Cl)cc1)C(=O)c1ccccc1C2=O

>  <IC50>
> 9.45 µM

$$$$
>  <smiles-notation>
CCOC(=O)Cc1oc2c(c1-c1ccc(C)cc1)C(=O)c1ccccc1C2=O

>  <IC50>
> 13.4 µM

$$$$
>  <smiles-notation>
CCOC(=O)Cc1oc2c(c1/C=C/c1ccccc1)C(=O)c1ccccc1C2=O

>  <IC50>
> 13 µM

$$$$
>  <smiles-notation>
CCOC(=O)Cc1c(-c2ccco2)c2c(n1-c1ccccc1)C(=O)c1ccccc1C2=O

>  <IC50>
> 11.8 µM

$$$$
>  <smiles-notation>
O=C1c2ccccc2C(=O)c2c(-c3cccc4ccccc34)coc21

>  <IC50>
6.17 µM

$$$$
>  <smiles-notation>
COc1ccc(-n2cc(-c3ccco3)c3c2C(=O)c2ccccc2C3=O)cc1

>  <IC50>
> 13.5 µM

$$$$
>  <smiles-notation>
CCOC(=O)Cc1oc2c(c1-c1ccc(Cl)cc1)C(=O)c1ccccc1C2=O

>  <IC50>
> 12.7 µM

$$$$
>  <smiles-notation>
COc1ccc(-c2cn(-c3ccc(OC)cc3)c3c2C(=O)c2ccccc2C3=O)cc1

>  <IC50>
> 12.2 µM

$$$$
>  <smiles-notation>
COc1ccc(-c2cn(-c3ccc(Cl)cc3)c3c2C(=O)c2ccccc2C3=O)cc1

>  <IC50>
> 12.6 µM

$$$$
>  <smiles-notation>
CCOC(=O)Cc1oc2c(c1-c1ccc(OC)cc1)C(=O)c1ccccc1C2=O

>  <IC50>
> 12.8 µM

$$$$
>  <smiles-notation>
CCOC(=O)Cc1c(-c2ccc(C)cc2)c2c(n1-c1ccc(OC)cc1)C(=O)c1ccccc1C2=O

>  <IC50>
> 10.4 µM

$$$$
>  <smiles-notation>
COc1ccc(-n2cc(-c3ccccc3)c3c2C(=O)c2ccccc2C3=O)cc1

>  <IC50>
> 13.2 µM

$$$$
>  <smiles-notation>
O=C1c2ccccc2C(=O)c2c(-c3ccc(Br)cc3)coc21

>  <IC50>
5.39 µM

$$$$

----------
system: SF-295; assay: Cytotoxicity against human SF295 cells assessed as reduction in cell viability after 72 hrs by MTT assay; conditions: SF-295, 72 h
pIC50: −log10 of the molar value.
# key: entry, value: pIC50

>  <smiles-notation>
CCOC(=O)Cc1oc2c(c1-c1ccco1)C(=O)c1ccccc1C2=O

>  <pIC50>
< 4.85

$$$$
>  <smiles-notation>
CCOC(=O)Cc1c(-c2ccc(C)cc2)c2c(n1-c1ccc(OC)cc1)C(=O)c1ccccc1C2=O

>  <pIC50>
< 4.98

$$$$
>  <smiles-notation>
CCOC(=O)Cc1c(-c2ccc(Cl)cc2)c2c(n1-c1ccc(OC)cc1)C(=O)c1ccccc1C2=O

>  <pIC50>
< 5.00

$$$$
>  <smiles-notation>
COc1ccc(-c2cn(-c3ccc(Cl)cc3)c3c2C(=O)c2ccccc2C3=O)cc1

>  <pIC50>
< 4.90

$$$$
>  <smiles-notation>
CCOC(=O)Cc1c(-c2ccc(OC)c(OC)c2)c2c(n1-c1cccc(Br)c1)C(=O)c1ccccc1C2=O

>  <pIC50>
< 5.06

$$$$

----------
tested on: PC-3; assay: Cytotoxicity against human PC3 cells assessed as reduction in cell viability after 72 hrs by MTT assay; type: functional, cell-based; details: PC-3, 72 h
# key: entry, value: IC50
observation-type: IC50

>  <smiles-notation>
Cc1ccc(-c2cn(-c3ccc(Br)cc3)c3c2C(=O)c2ccccc2C3=O)cc1

>  <test-target>
PC-3

>  <observation-type>
IC50

>  <test-value>
> 12.1 µM

$$$$
>  <smiles-notation>
COc1ccc(-c2cn(-c3ccc(OC)cc3)c3c2C(=O)c2ccccc2C3=O)cc1

>  <test-target>
PC-3

>  <observation-type>
IC50

>  <test-value>
> 12.2 µM

$$$$
>  <smiles-notation>
COc1ccc(-n2cc(-c3ccc(C)cc3)c3c2C(=O)c2ccccc2C3=O)cc1

>  <test-target>
PC-3

>  <observation-type>
IC50

>  <test-value>
> 12.7 µM

$$$$
>  <smiles-notation>
COc1ccc(-c2cn(-c3ccccc3)c3c2C(=O)c2ccccc2C3=O)cc1

>  <test-target>
PC-3

>  <observation-type>
IC50

>  <test-value>
> 13 µM

$$$$
>  <smiles-notation>
O=C1c2ccccc2C(=O)c2c(-c3cccc4ccccc34)coc21

>  <test-target>
PC-3

>  <observation-type>
IC50

>  <test-value>
1.82 µM

$$$$
>  <smiles-notation>
CCOC(=O)Cc1c(-c2cccs2)c2c(n1-c1ccccc1)C(=O)c1ccccc1C2=O

>  <test-target>
PC-3

>  <observation-type>
IC50

>  <test-value>
> 11.3 µM

$$$$
>  <smiles-notation>
CCOC(=O)Cc1oc2c(c1-c1ccc(C)cc1)C(=O)c1ccccc1C2=O

>  <test-target>
PC-3

>  <observation-type>
IC50

>  <test-value>
> 13.4 µM

$$$$
>  <smiles-notation>
O=C1c2ccccc2C(=O)c2c(-c3ccccc3[N+](=O)[O-])coc21

>  <test-target>
PC-3

>  <observation-type>
IC50

>  <test-value>
1.59 µM

$$$$
>  <smiles-notation>
CCOC(=O)Cc1c(-c2ccc(C)cc2)c2c(n1-c1ccc(OC)cc1)C(=O)c1ccccc1C2=O

>  <test-target>
PC-3

>  <observation-type>
IC50

>  <test-value>
> 10.4 µM

$$$$
>  <smiles-notation>
O=C1c2ccccc2C(=O)c2c(-c3ccc(F)cc3)coc21

>  <test-target>
PC-3

>  <observation-type>
IC50

>  <test-value>
3.97 µM

$$$$
>  <smiles-notation>
Cc1ccc(-c2cn(-c3ccc(C)cc3)c3c2C(=O)c2ccccc2C3=O)cc1

>  <test-target>
PC-3

>  <observation-type>
IC50

>  <test-value>
> 11.3 µM

$$$$
>  <smiles-notation>
CCOC(=O)Cc1c(-c2ccccc2)c2c(n1-c1ccc(C)cc1)C(=O)c1ccccc1C2=O

>  <test-target>
PC-3

>  <observation-type>
IC50

>  <test-value>
> 11.1 µM

$$$$
>  <smiles-notation>
COc1ccc(-n2cc(-c3ccccc3)c3c2C(=O)c2ccccc2C3=O)cc1

>  <test-target>
PC-3

>  <observation-type>
IC50

>  <test-value>
> 13.2 µM

$$$$
>  <smiles-notation>
CCOC(=O)Cc1oc2c(c1-c1ccc(Cl)cc1)C(=O)c1ccccc1C2=O

>  <test-target>
PC-3

>  <observation-type>
IC50

>  <test-value>
> 12.7 µM

$$$$
>  <smiles-notation>
CSc1ccc(-c2coc3c2C(=O)c2ccccc2C3=O)cc1

>  <test-target>
PC-3

>  <observation-type>
IC50

>  <test-value>
2.49 µM

$$$$
>  <smiles-notation>
COc1ccc(-c2cn(-c3ccc(Cl)cc3)c3c2C(=O)c2ccccc2C3=O)cc1

>  <test-target>
PC-3

>  <observation-type>
IC50

>  <test-value>
> 12.6 µM

$$$$

----------
test system: NCI-H460; assay: Cytotoxicity against human NCI-H460 cells assessed as reduction in cell viability after 72 hrs by MTT assay; conditions: NCI-H460, 72 h
# key: entry, value: IC50

>  <smiles-notation>
COc1ccc(-c2cn(-c3ccccc3)c3c2C(=O)c2ccccc2C3=O)cc1

>  <IC50>
> 13 µM

$$$$
>  <smiles-notation>
CCOC(=O)Cc1c(-c2ccccc2)c2c(n1-c1ccc(C)cc1)C(=O)c1ccccc1C2=O

>  <IC50>
> 11.1 µM

$$$$
>  <smiles-notation>
CCOC(=O)Cc1c(-c2ccco2)c2c(n1-c1ccccc1)C(=O)c1ccccc1C2=O

>  <IC50>
> 11.8 µM

$$$$
>  <smiles-notation>
COc1ccc(-c2coc3c2C(=O)c2ccccc2C3=O)cc1OC

>  <IC50>
4.07 µM

$$$$
>  <smiles-notation>
O=C1c2ccccc2C(=O)c2c(-c3cccc4c3OCO4)coc21

>  <IC50>
3.61 µM

$$$$
>  <smiles-notation>
COc1ccc(-n2cc(-c3ccco3)c3c2C(=O)c2ccccc2C3=O)cc1

>  <IC50>
> 13.5 µM

$$$$
>  <smiles-notation>
COc1ccc(-n2cc(-c3ccc(Cl)cc3)c3c2C(=O)c2ccccc2C3=O)cc1

>  <IC50>
3.81 µM

$$$$
>  <smiles-notation>
COc1ccc(-c2cn(-c3ccc(OC)cc3)c3c2C(=O)c2ccccc2C3=O)cc1

>  <IC50>
> 12.2 µM

$$$$
>  <smiles-notation>
CCOC(=O)Cc1oc2c(c1-c1cc(OC)c(OC)c(OC)c1)C(=O)c1ccccc1C2=O

>  <IC50>
> 11.1 µM

$$$$
>  <smiles-notation>
CCOC(=O)Cc1oc2c(c1-c1ccc(C)cc1)C(=O)c1ccccc1C2=O

>  <IC50>
> 13.4 µM

$$$$
>  <smiles-notation>
CCOC(=O)Cc1oc2c(c1-c1ccco1)C(=O)c1ccccc1C2=O

>  <IC50>
> 14.3 µM

$$$$
>  <smiles-notation>
CCOC(=O)Cc1c(-c2cc(OC)c(OC)c(OC)c2)c2c(n1-c1cccc(Br)c1)C(=O)c1ccccc1C2=O

>  <IC50>
> 8.29 µM

$$$$
>  <smiles-notation>
CCOC(=O)Cc1c(-c2ccc(C)cc2)c2c(n1-c1ccc(OC)cc1)C(=O)c1ccccc1C2=O

>  <IC50>
> 10.4 µM

$$$$
>  <smiles-notation>
CCOC(=O)Cc1c(-c2ccc(OC)c(OC)c2)c2c(n1-c1ccc(Br)cc1)C(=O)c1ccccc1C2=O

>  <IC50>
> 17.4 µM

$$$$
>  <smiles-notation>
COc1ccc(-c2cn(-c3ccc(Cl)cc3)c3c2C(=O)c2ccccc2C3=O)cc1

>  <IC50>
> 12.6 µM

$$$$
>  <smiles-notation>
CCOC(=O)Cc1c(-c2ccc(OC)c(OC)c2)c2c(n1-c1ccc(Cl)cc1)C(=O)c1ccccc1C2=O

>  <IC50>
> 9.45 µM

$$$$
>  <smiles-notation>
COc1ccc(-n2cc(-c3ccccc3)c3c2C(=O)c2ccccc2C3=O)cc1

>  <IC50>
> 13.2 µM

$$$$
>  <smiles-notation>
O=C1c2ccccc2C(=O)c2c(-c3ccccc3[N+](=O)[O-])coc21

>  <IC50>
2.53 µM

$$$$
>  <smiles-notation>
COc1ccc(-c2coc3c2C(=O)c2ccccc2C3=O)cc1

>  <IC50>
6.34 µM

$$$$
>  <smiles-notation>
O=C1c2ccccc2C(=O)c2c(-c3cccs3)coc21

>  <IC50>
5.67 µM

$$$$
>  <smiles-notation>
CSc1ccc(-c2coc3c2C(=O)c2ccccc2C3=O)cc1

>  <IC50>
4.68 µM

$$$$
>  <smiles-notation>
COc1ccc(-c2cn(-c3ccc(F)cc3)c3c2C(=O)c2ccccc2C3=O)cc1

>  <IC50>
> 13.2 µM

$$$$
>  <smiles-notation>
COc1ccc(-n2cc(-c3ccc(C)cc3)c3c2C(=O)c2ccccc2C3=O)cc1

>  <IC50>
> 12.7 µM

$$$$
>  <smiles-notation>
CCOC(=O)Cc1c(-c2ccc(Cl)cc2)c2c(n1-c1ccc(OC)cc1)C(=O)c1ccccc1C2=O

>  <IC50>
> 10 µM

$$$$
>  <smiles-notation>
O=C1c2ccccc2C(=O)c2c(-c3ccc(Br)cc3)coc21

>  <IC50>
4.88 µM

$$$$
>  <smiles-notation>
Cc1ccc(-c2cn(-c3ccc(Br)cc3)c3c2C(=O)c2ccccc2C3=O)cc1

>  <IC50>
> 12.1 µM

$$$$
>  <smiles-notation>
CCOC(=O)Cc1oc2c(c1-c1ccc(OC)cc1)C(=O)c1ccccc1C2=O

>  <IC50>
> 12.8 µM

$$$$
>  <smiles-notation>
CCOC(=O)Cc1oc2c(c1-c1ccc(OC)c(OC)c1)C(=O)c1ccccc1C2=O

>  <IC50>
7.53 µM

$$$$
>  <smiles-notation>
Cc1ccc(-c2cn(-c3ccc(C)cc3)c3c2C(=O)c2ccccc2C3=O)cc1

>  <IC50>
> 11.3 µM

$$$$
>  <smiles-notation>
CCOC(=O)Cc1oc2c(c1/C=C/c1ccccc1)C(=O)c1ccccc1C2=O

>  <IC50>
> 13 µM

$$$$
>  <smiles-notation>
CCOC(=O)Cc1c(-c2cccs2)c2c(n1-c1ccccc1)C(=O)c1ccccc1C2=O

>  <IC50>
> 11.3 µM

$$$$
>  <smiles-notation>
O=C1c2ccccc2C(=O)c2c(-c3ccc(F)cc3)coc21

>  <IC50>
4.34 µM

$$$$
>  <smiles-notation>
CCOC(=O)Cc1oc2c(c1-c1ccc(Cl)cc1)C(=O)c1ccccc1C2=O

>  <IC50>
> 12.7 µM

$$$$
>  <smiles-notation>
CCOC(=O)Cc1c(-c2ccc(C)cc2)c2c(n1-c1ccc(C)cc1)C(=O)c1ccccc1C2=O

>  <IC50>
> 10.8 µM

$$$$

Data origin: ChEMBL document CHEMBL4152217
